assay-explanation: Dynamic solubility test in water, SGF, FeSSIF, FaSSIF
Format: physicochemical
measurement-context: SGF, Time 2; dihydrochloride
Structures can show the parent of a compound that is named as a salt.
endpoint-name: pH in clear solution

Previously resolved entries follow.
{"compound": "CC1CCN(C(=O)c2ccc([C@H](c3cccc(O)c3)N3C[C@@H](C)N(Cc4cccc(F)c4)C[C@@H]3C)cc2)CC1 [Polymorph form F, dihydrochloride]", "pH in clear solution": 1.6}
{"compound": "CC1CCN(C(=O)c2ccc([C@H](c3cccc(O)c3)N3C[C@@H](C)N(Cc4cccc(F)c4)C[C@@H]3C)cc2)CC1 [Polymorph form P, dihydrochloride]", "pH in clear solution": 1.7}
{"compound": "CC1CCN(C(=O)c2ccc([C@H](c3cccc(O)c3)N3C[C@@H](C)N(Cc4cccc(F)c4)C[C@@H]3C)cc2)CC1 [Polymorph form J, dihydrochloride]", "pH in clear solution": 1.5}
{"compound": "CC1CCN(C(=O)c2ccc([C@H](c3cccc(O)c3)N3C[C@@H](C)N(Cc4cccc(F)c4)C[C@@H]3C)cc2)CC1 [Polymorph form O, dihydrochloride]", "pH in clear solution": 1.6}

Enquiry: Consider the compound CC1CCN(C(=O)c2ccc([C@H](c3cccc(O)c3)N3C[C@@H](C)N(Cc4cccc(F)c4)C[C@@H]3C)cc2)CC1 [Polymorph form B, dihydrochloride] . State its measured pH in clear solution.
Return: 1.5

###

assay-explanation: Dynamic solubility test in water, SGF, FeSSIF, FaSSIF
Assay type: physicochemical
measurement-context: Water, Time 4; dihydrochloride
Structures can show the parent of a compound that is named as a salt.
endpoint-name: pH in clear solution
// no unit string in output, number only

Previously resolved entries follow.
{"compound": "CC1CCN(C(=O)c2ccc([C@H](c3cccc(O)c3)N3C[C@@H](C)N(Cc4cccc(F)c4)C[C@@H]3C)cc2)CC1 [Polymorph form P, dihydrochloride]", "reported-result": 1.9}
{"compound": "CC1CCN(C(=O)c2ccc([C@H](c3cccc(O)c3)N3C[C@@H](C)N(Cc4cccc(F)c4)C[C@@H]3C)cc2)CC1 [Polymorph form B, dihydrochloride]", "reported-result": 1.8}

Enquiry: Consider the compound CC1CCN(C(=O)c2ccc([C@H](c3cccc(O)c3)N3C[C@@H](C)N(Cc4cccc(F)c4)C[C@@H]3C)cc2)CC1 [Polymorph form J, dihydrochloride] . State its measured pH in clear solution.
Return: 1.7

Enquiry: Consider the compound CC1CCN(C(=O)c2ccc([C@H](c3cccc(O)c3)N3C[C@@H](C)N(Cc4cccc(F)c4)C[C@@H]3C)cc2)CC1 [Polymorph form O, dihydrochloride] . State its measured pH in clear solution.
Return: 1.9

Enquiry: Consider the compound CC1CCN(C(=O)c2ccc([C@H](c3cccc(O)c3)N3C[C@@H](C)N(Cc4cccc(F)c4)C[C@@H]3C)cc2)CC1 [Polymorph form F, dihydrochloride] . State its measured pH in clear solution.
Return: 1.8

###

assay-explanation: Relative bioavailability test
Assay type: in vivo, SPF-grade SD rats
measurement-context: both sexes, SD, rat, in vivo, po, 20 mg/kg
Counter-ions that a name gives are not always drawn.
endpoint-name: bioavailability (%)
Numeric only. Scale: %

Enquiry: Consider the compound CC1CCN(C(=O)c2ccc([C@H](c3cccc(O)c3)N3C[C@@H](C)N(Cc4cccc(F)c4)C[C@@H]3C)cc2)CC1 [Polymorph form P, dihydrochloride] . State its measured bioavailability.
Return: 202
